- experimentalSystem: hemagglutinin of H5N1 clade 2.2 strain WS/Mong/244/05 (influenza A virus WS/Mong/244/05 (H5N1))
- assayText: cell-based or functional assay
propertyMeasured: IC50, neutralisation of retroviral pseudotypes (ng/mL)
# value in ng/mL; strip the unit string

Recorded IC50, neutralisation of retroviral pseudotypes, per entry:
FLD84 (antibody, V domains shown) VH: QVQLQESGPGLVKPSETLSLICAVSGASISSSYWSWIRQPPGKGLEWIGYIYYSGVTKYNPSLKSRVTLSVDTSKNHFSLKLSYVTAADTAVYYCARNLPDIAVVTAVQDATPVWFDPWGPGTLVSVSS VL: DIQLTQSPSSLSASVGDRVTITCRASQGIITYLNWYQQKPGKAPKLLIYATYSLQNGVPSRFSGSGSGTDFTLTISSLQPEDFATYYCQQSYSSLMFTFGQGTKLDIK: 30
FLD122 (antibody, V domains shown) VH: QFQLVQSGPEVKKPGTSVKVSCKASGYTSTTYGISWVRQVPGQGLEWMGWINPYNGNPHYGQKFQGRVTLTRDTSTNTAYLEILSLRSDDTAVYYCARDGWGQQLVPYYFDYWGQGTLVTVSS VL: DIVMTQSPLSLPVTPGEPASISCRASQSLLHSNGYNYLDWYLQKPGQSPQLLIQLGSTRASGVPDRFSGSGSGTDFTLEISRVEAEDVGVYYCMQALQLPLAFGQGTRLEIK: 6
FLD20.19 (antibody, V domains shown) VH: QVQLVQSGAEVKKPGSSVTVSCKASGGTFSNYGISWVRQAPGQGLDWMGGIIPLFGTANYAQKFQGRVTITADESTSSSNMELSSLRSEDTAVYYCARDVHNYDFLTGYPLHLYGMDVWGQGTTVTVSS VL: DIQMTQSPSSLSASVGDRVTITCRASQSISTYLNWYQQKPGIPPKLLINVASSLQSGVPSRFSGSGSGTDFTLTISSLQPEDFASYYCQQTYSSPPTFGQGTKVEIK: 4

I would be grateful if you could share the reported IC50, neutralisation of retroviral pseudotypes for FLD132 (antibody, V domains shown) VH: EVQLVQSGAELKMPGESLKISCKASGYTFTNYWIGWVRQTPGKGLEWMGIIFPPDSQTSYSPSFQGQVTFSVDNSISVAYIQWSSLKASDTAIYYCARSGIFDWSAPLVEAFDIWGQGTVVTVSS VL: DIQLTQSPSFLSASVGDGVTITCRASQDIYIYLAWYQQKPGKAPKLLIYAASTLQGGVPSRFSGSGSGTEFTLTINNLQPEDFATYFCQQLNGYPLTFGGGTKVEIK .
1

Try this binder too: FLD93 (antibody, V domains shown) VH: WWQLVQSGAEVKKPGSSVKVSCKASGGTFSSYDISWVRQAPGQGLEWMGGIIPIYGTANYAQKFQGRVTITADESTSTAYMELSSLRSEDTAVYYCARAGGDSSGYYGALGRFFQHWGQGTLVTVSS VL: VIWMTQSPSLLSASTGDRVTISCRMSQGISSYLAWYQQKPGKAPELLIHTAYTLKSGVPSRFSGSGSGKDFTLTISGLQSEDFATYYCQQYYSFPYTFGQGTKVEIK
11

Try this binder too: FLD129 (antibody, V domains shown) VH: EVQLVESGGGLVQPGRSLRLSCAASGFTFSDFWMSWVRQAPGKGLEWVANIDQDGNERFYADSVKGRFTISRDNAKNSLYLQMTSLRADDTAVYYCARDGREGYFYGSGSFYNLKGLNWGQGTLLTVSS VL: QSVLTQPPSVSAAPGQRVTISCSGTSSNIGKNYVSWYQQLPGAAPKLLIYDNDKRPSGIPDRFSGSKSGTSATLGITGLQTGDEADYYCGTWDSSLSVGMFGGGTRLTVL
3

Data origin, for the record: patent US20100278834A1
